// provenance: patent US20220177587A1

Target or system: huCTLA4 (Homo sapiens, UniProt P16410)
Sequence (P16410 36-223): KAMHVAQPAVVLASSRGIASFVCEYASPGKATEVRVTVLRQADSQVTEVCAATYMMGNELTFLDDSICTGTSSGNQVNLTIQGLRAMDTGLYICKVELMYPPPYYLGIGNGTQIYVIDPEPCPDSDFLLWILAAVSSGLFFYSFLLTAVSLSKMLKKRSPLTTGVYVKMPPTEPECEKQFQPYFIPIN
Test name: Flow binding to CHO cells stably expressing CTLA4
Parameters: huCTLA4 and huPD-L1, full-length mammalian surface expression constructs were generated; expressed in transfected cells; host or cells: CHO cells, lentiviral transduction, sorted to >98% purity
Assay context: Table E23; MFI at 33.3 nM relative to CD80 WT IgV-Fc
Assay endpoint: CTLA4 Fold change to WT CD80
Give bare numbers.

Task: Please indicate CTLA4 Fold change to WT CD80 recorded for H18I/A26P/E35D/M47V/V68M/A71G (protein, UniProt P33681 35-288, looked up, variant H18I A26P E35D M47V V68M A71G) T-lymphocyte activation …: VIHVTKEVKEVATLSCGINVSVEELPQTRIYWQKDKKMVLTMMSGDVNIWPEYKNRTIFDITNNLSIMILGLRPSDEGTYECVVLKYEKDAFKREHLAEVTLSVKADFPTPSISDFEIPTSNIRRIICSTSGGFPEPHLSWLENGEELNAINTTVSQDPETELYAVSSKLDFNMTTNHSFMCLIKYGHLRVNQTFNWNTTKQEHFPDNLLPSWAITLISVNGIFVICCLTYCFAPRCRERRRNERLRRESVRPV
Output: 15.8
